biological target: HLA-B*45:01; assay: IEDB peptide-MHC binding, purified MHC/competitive/radioactivity; filed as Kd, often an IC50 or EC50 that approximates it; bounds were set here for any values at or beyond the usual limits of such assays; conditions: source organism: Mammarenavirus guanaritoense
MEASURED METRIC: Kd

INSERT INTO measurements (residue_codes, value_reported) VALUES
  ('PECSDSPLVL', '≥ 70 µM');

###

biological target: HLA-A*02:02; assay: IEDB peptide-MHC binding, purified MHC/competitive/radioactivity; filed as Kd, often an IC50 or EC50 that approximates it; bounds were set here for any values at or beyond the usual limits of such assays; settings: source organism: Vaccinia virus WR
MEASURED METRIC: Kd

INSERT INTO results (residue_codes, value_reported) VALUES
  ('YIRRNMINKL', '0.82 µM'),
  ('IMAFILGIII', '0.632 µM'),
  ('SISSVLTIL', '0.00125 µM'),
  ('ELPYVGDTSM', '4.13 µM'),
  ('AFEFINSLLK', '5.48 µM'),
  ('TISGNIYSA', '0.0845 µM'),
  ('SILSLETVKM', '0.203 µM'),
  ('DVDMDFDLNI', '2.03 µM'),
  ('DISSFYWSL', '0.391 µM'),
  ('KVIKLVKSLV', '14.3 µM'),
  ('ELAYYNSCM', '0.129 µM');
